Data provenance is PubChem BioAssay (EPA / NIEHS).

- assayedSystem: Nuclear receptor subfamily 4 group A member 2 (Homo sapiens) (UniProt P43354)
- Sequence (P43354 whole entry, looked up): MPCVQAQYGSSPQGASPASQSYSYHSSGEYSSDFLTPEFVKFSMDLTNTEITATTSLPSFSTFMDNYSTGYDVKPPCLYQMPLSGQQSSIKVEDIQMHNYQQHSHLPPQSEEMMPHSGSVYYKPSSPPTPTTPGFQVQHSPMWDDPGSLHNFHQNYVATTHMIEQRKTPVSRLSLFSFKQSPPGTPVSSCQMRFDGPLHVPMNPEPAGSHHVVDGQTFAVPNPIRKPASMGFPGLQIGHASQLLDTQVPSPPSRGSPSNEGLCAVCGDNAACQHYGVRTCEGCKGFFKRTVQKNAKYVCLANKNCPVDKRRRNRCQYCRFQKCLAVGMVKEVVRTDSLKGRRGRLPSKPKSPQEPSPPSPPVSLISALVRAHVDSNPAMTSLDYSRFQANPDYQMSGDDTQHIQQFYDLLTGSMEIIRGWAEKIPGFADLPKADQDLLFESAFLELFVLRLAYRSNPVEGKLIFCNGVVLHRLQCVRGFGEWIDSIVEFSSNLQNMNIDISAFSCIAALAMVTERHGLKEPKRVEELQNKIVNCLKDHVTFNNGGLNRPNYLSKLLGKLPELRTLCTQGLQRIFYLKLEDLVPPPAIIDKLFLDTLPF
- procedureSummary: ATG_NURR1_TRANS: Attagene TRANS-FACTORIAL HepG2 Assay for human Nuclear Receptor Related Protein 1 (NURR1) (AID 2282985)
- conditionInfo: HepG2 Attagene TRANS reporter, mRNA readout
Inconclusive results are not listed. Calls of active or inactive are those of the source. The calls were made as follows: active = hit-call score of the fitted dose curve at least 0.9, where 1 is the maximum; inconclusive = response in the unintended direction; inactive = score below 0.9.
assayReadout: outcome

Reference set, count: 5
- C=CCOC(=O)c1ccccc1C(=O)OCC=C: inactive
- Cc1ccc(Cl)cc1: inactive
- Cc1oc(-c2ccccc2)nc1CCOc1cccc2c1ccn2CCC(=O)O: inactive
- Cc1cc(NC(=O)C(=O)O)cc(C)c1Oc1ccc(O)c2c1CCC2: inactive
- COc1cc(/C=C/C(=O)CC(=O)/C=C/c2ccc(O)c(OC)c2)ccc1O: inactive

Lab note: measured outcome of `COc1ccc(S(=O)(=O)N2C(=O)[C@@](c3ccccc3OC)(N3C[C@H](O)C[C@H]3C(=O)N(C)C)c3cc(Cl)ccc32)c(OC)c1` was inactive

Lab note: measured outcome of `Cc1ccc(C)c(C)c1` was inactive
